STUDY TARGET: Nuclear receptor subfamily 1 group I member 2 (Homo sapiens) (UniProt O75469)
Sequence (O75469 whole entry, looked up): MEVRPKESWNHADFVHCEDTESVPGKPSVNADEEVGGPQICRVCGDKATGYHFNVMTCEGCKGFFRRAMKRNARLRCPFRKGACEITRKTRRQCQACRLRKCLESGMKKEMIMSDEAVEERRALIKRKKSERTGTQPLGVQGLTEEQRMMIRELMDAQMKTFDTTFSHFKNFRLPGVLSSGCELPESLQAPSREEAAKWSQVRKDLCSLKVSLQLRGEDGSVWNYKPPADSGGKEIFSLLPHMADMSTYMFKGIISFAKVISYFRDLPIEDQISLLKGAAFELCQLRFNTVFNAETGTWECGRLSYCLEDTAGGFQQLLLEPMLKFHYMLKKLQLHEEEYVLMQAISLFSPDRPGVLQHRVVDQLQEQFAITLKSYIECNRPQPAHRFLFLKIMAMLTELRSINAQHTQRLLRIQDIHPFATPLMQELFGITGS
PROTOCOL TEXT: Human pregnane X receptor (PXR) small molecule agonists, qHTS assay (AID 1346982); note: nearly all actives have a fitted effect of over 35% in size; note: potency is the fitted concentration of half-maximal effect
RUN CONDITIONS: PXR-Luc HepG2, CYP3A4 luciferase reporter, 24 h; series mostly up to 92.4 µM
Records with an inconclusive call do not appear. The source made the active and inactive calls. Calls come from the whole dose curve; as a rule, active = well fitted activation curve with a large enough effect in the repeat runs; inconclusive = weak or mixed curves; inactive = no such curve, though single readings can be large or run the other way.
OBSERVED PROPERTY: Potency

// solved cases for Potency follow
{"COMPOUND": "Oc1ccc(I)cc1", "OBSERVED PROPERTY": "Potency", "READING": "inactive"}
{"COMPOUND": "COc1ccc([N+](=O)[O-])cc1O", "OBSERVED PROPERTY": "Potency", "READING": "inactive"}
{"COMPOUND": "CC(C)CC(C)Nc1ccc(Nc2ccccc2)cc1 (stereo unspecified)", "OBSERVED PROPERTY": "Potency", "READING": "12 µM (active)"}
{"COMPOUND": "Nc1ccc(Cc2ccc(N)c(Cl)c2)cc1Cl", "OBSERVED PROPERTY": "Potency", "READING": "52.7 µM (active)"}

Name the recorded Potency of CCN , assay system Nuclear receptor subfamily 1 group I member 2 (Homo sapiens) (UniProt O75469).
inactive

Name the recorded Potency of CC(=O)O[C@H]1CC[C@@]2(C)C(=CC[C@@H]3[C@@H]2CC[C@]2(C)C(=O)CC[C@@H]32)C1 , assay system Nuclear receptor subfamily 1 group I member 2 (Homo sapiens) (UniProt O75469).
54.5 µM (active)
